# TEST_DETAILS: In vivo leishmanicidal activity determined against amastigotes of Leishmania donovani in golden hamsters
# Format: functional, Mesocricetus auratus
# Set-up: concentration or dose not given beside the values
METRIC_NAME: Inhibition (%)

{"CHEMICAL_SMILES": "CCn1c(=N)c2c(=O)n(CC)c(=S)n3c2n(c1=S)CCC3", "VAL": 50.7}
{"CHEMICAL_SMILES": "Cc1ccccc1-n1c(=O)c2c(=O)n(-c3ccccc3C)c(=O)n3c2n(c1=O)CC3", "VAL": 0}
{"CHEMICAL_SMILES": "O=c1c2c(=O)n(-c3ccc(F)cc3)c(=S)n3c2n(c(=S)n1-c1ccc(F)cc1)CC3", "VAL": 0}
{"CHEMICAL_SMILES": "O=c1c2c(=O)n(-c3ccccc3)c(=S)n3c2n(c(=S)n1-c1ccccc1)CC3", "VAL": 81.3}
{"CHEMICAL_SMILES": "N=c1c2c(=O)n(-c3ccccc3)c(=S)n3c2n(c(=S)n1-c1ccccc1)CC3", "VAL": 78.6}
{"CHEMICAL_SMILES": "CCO/C(O)=C(\\C1=NCCCN1)c1nnc(N)s1", "VAL": 44.7}
{"CHEMICAL_SMILES": "CCO/C(O)=C(\\C1=NCCN1)c1nn2cc(-c3ccc(Br)cc3)nc2s1", "VAL": 0}
{"CHEMICAL_SMILES": "CCn1c(=O)c2c(=O)n(CC)c(=O)n3c2n(c1=O)CCC3", "VAL": 0}
{"CHEMICAL_SMILES": "CCn1c(=N)c2c(=O)n(CC)c(=S)n3c2n(c1=S)CC3", "VAL": 71.2}
{"CHEMICAL_SMILES": "CCO/C(O)=C(\\C1=NCCN1)c1nn2cc(-c3ccc(Cl)cc3)nc2s1", "VAL": 0}

Data provenance: ChEMBL document CHEMBL1150556
